- Test system: ACHN renal
- procedure text: NCI-60 one-dose screen, 48 h (100 = growth as untreated, 0 = no growth, -100 = all killed)
- conditions: 10 µM unless noted
Compounds without any hit were thinned out: in the full panel of roughly 83,000, 20% have a hit.
metric name: growth (%)
API: value field is a number in %; no unit string.

Below: 3 compounds and their reported growth.
Cc1cc(Nc2ccc(F)cc2)nc(N2CCN(c3ccnc4cc(Cl)ccc34)CC2)n1 | 2.61
Fc1ccc(Nc2nc(Nc3ccc(-c4nc5ccccc5[nH]4)cc3)nc(N3CCCC3)n2)cc1 | 73.1
CC1(C)NC2=C(C(Nc3cccnc3)N1)C(c1ccc([N+](=O)[O-])cc1)C(C(=O)c1ccc(N=[N+]=[N-])cc1)O2 (configuration not stated) | 102

May I ask what growth has been recorded for COc1ccc(OC)c(-c2c(C#N)c(-c3ccco3)nc3c2c(-c2ccccc2)nn3-c2ccccc2)c1 ?
96.4

May I ask what growth has been recorded for O=C1NC(c2ccc(Cl)c(Cl)c2)=C/C1=C\c1ccccc1 ?
4.37

###

- Tested on: A498 renal
- procedure text: NCI-60 one-dose screen, 48 h
- conditions: 10 µM unless noted
This is part of a sample that, as a whole, favours compounds with a hit. Of some 83,000 tested, about 20% had one in any assay. Activity calls are given as the source filed them. The calls were made as follows: active = growth percent below 10; inactive = the rest.
Valid outcomes are listed here; reply with one: active, inactive

O=C(O[C@@H]1Cc2c(O)cc(O)cc2O[C@@H]1c1cc(O)c(O)c(O)c1)c1cc(O)c2c(c1)OCO2 | inactive
COC(=O)[C@]12CC[C@@H](C)[C@H](C)[C@@H]1C1=CC[C@@H]3[C@@]4(C)CC(=O)[C@H](OC(=O)c5ccco5)[C@@]5(C)COC(=C45)C[C@@]3(C)[C@]1(C)CC2 | inactive
CCCNc1nc(N(C)O)nc(N(C)O)n1 | inactive
N=C(N)N=Nc1ccc(O)cc1 | inactive
Cc1nn(-c2ccc(Br)cc2)c2nc3[nH]c(=O)[nH]c(=O)c3nc12 | inactive

Each molecule tested received a call. Report the one for COc1cccc(-c2nn(-c3ccccc3)cc2-c2ccnc(NCCCNS(=O)(=O)c3ccc(Br)cc3)c2)c1 .
inactive

Each molecule tested received a call. Report the one for COc1cc(-c2cc3ncccc3c3nc(OCCN(C)C)c4cccnc4c23)cc(OC)c1OC .
active

Each molecule tested received a call. Report the one for CN(C)CCCCC(C(=O)CBr)(c1ccccc1)c1ccccc1 .
inactive

Each molecule tested received a call. Report the one for C=C1C(=O)O[C@H]2[C@H]1CC/C(COC(=O)NCCc1c[nH]c3ccccc13)=C\CC[C@@]1(C)O[C@@H]21 .
inactive

Each molecule tested received a call. Report the one for COc1ccc2c(c1)C/C(=C\c1cc(-c3cc(OC)c(OC)c(OC)c3)n[nH]1)C2=O .
inactive

###

- Test system: HCT-15 colon
- procedure text: NCI-60 one-dose screen, 48 h (100 = growth as untreated, 0 = no growth, -100 = all killed)
- conditions: 10 µM unless noted
Compounds without any hit were thinned out: in the full panel of roughly 83,000, 20% have a hit.
The entries below are paired with their reported growth.
API: value field is a number in %; no unit string.

Below: 3 compounds and their reported growth.
Cc1cc(N=O)cc(C(C)(C)C)c1O | 101
CCN1CCN(c2nc(C)cc(N(CCCNc3ccnc4cc(Cl)ccc34)Cc3ccco3)n2)CC1 | 17.9
Cn1cc(-c2nc(-c3c[nH]c4ncccc34)cs2)c2cc(F)ccc21 | 19.6

May I ask what growth has been recorded for OCC1OC(n2cnc3c(Cl)ncnc32)CC1O (stereo unspecified) ?
95.6

May I ask what growth has been recorded for CCCCCCCC(=O)SCC/C=C/[C@@H]1CC(=O)NCc2cccc(n2)CN(Cc2ccc3ccccc3c2)CC(=O)N[C@@H](C(C)C)C(=O)O1 ?
57.8

May I ask what growth has been recorded for COc1cc(OC)c2c(c1)c1nc3cc(C)c(C)cc3nc1n2CCN(C)C ?
77.2

May I ask what growth has been recorded for N#CC1=C(N)Oc2c(c(N)nn2-c2ccccc2)C1c1ccc(Cl)cc1Cl (stereo unspecified) ?
100

May I ask what growth has been recorded for Brc1cnc2[nH]cc(-c3nnc(-c4ccccc4)o3)c2c1 ?
55

May I ask what growth has been recorded for CN(C)CCCCC(C(=O)CBr)(c1ccccc1)c1ccccc1 ?
-33.9

May I ask what growth has been recorded for COc1ccc(O)c(-c2cc(-c3ccc(Cl)cc3)c(C#N)c(=O)[nH]2)c1 ?
66.5

May I ask what growth has been recorded for CC(=O)O[C@H]1CC[C@@]2(C)C(=CC[C@@H]3[C@@H]2CC[C@]2(C)C(=O)N(O)C(=O)C[C@@H]32)C1 ?
58.9

May I ask what growth has been recorded for COc1ccc2c(c1)C/C(=C\c1cc(-c3ccc4c(c3)OCO4)n[nH]1)C2=O ?
90.3

###

- System: COLO 205 colon
- procedure text: NCI-60 one-dose screen, 48 h
- conditions: 10 µM unless noted
Compounds without any hit were thinned out: in the full panel of roughly 83,000, 20% have a hit. The source made the active and inactive calls. Rule for the calls: active = growth percent below 10; inactive = the rest.
Valid outcomes are listed here; reply with one: active, inactive

Cc1cc(Nc2ccc(F)cc2)nc(N2CCN(c3ccnc4cc(Cl)ccc34)CC2)n1 | active

Each compound tested received a call. Report the one for COc1ccc(CCN2C(=O)C(C)(C)SC2=S)cc1OC .
inactive

Each compound tested received a call. Report the one for COc1cc(/C=C/c2cc(/C=C/c3ccc(O)c(OC)c3)n(-c3ccc(Cl)cc3)c(=O)n2)ccc1O .
inactive

###

The entries below are paired with their reported growth.
- Test system: BT-549 breast
- procedure text: NCI-60 one-dose screen, 48 h (100 = growth as untreated, 0 = no growth, -100 = all killed)
- conditions: 10 µM unless noted
Compounds without any hit were thinned out: in the full panel of roughly 83,000, 20% have a hit.
API: value field is a number in %; no unit string.

C[C@H]1[C@H]2C3=CC[C@@H]4[C@@]5(C)C/C(=C/c6ccco6)C(=O)C(C)(C)[C@@H]5CC[C@@]4(C)[C@]3(C)CC[C@@]2(C(=O)N2CCOCC2)CC[C@@H]1C | 75.8
COc1ccc2c(c1)c(-c1nc(-c3c[nH]c4ncccc34)cs1)cn2CCN | 88.2
CCC1C(=O)COC1=O (stereo not drawn) | 95.9
CC1(C)CC[C@]2(CO)CC[C@]3(C)C(=CC[C@@H]4[C@@]5(C)CC[C@H](NCO)C(C)(C)[C@@H]5CC[C@]43C)[C@@H]2C1 | 59.1
C=C(C)[C@@H]1CC[C@]2(C(=O)O)CC[C@]3(C)[C@H](CC[C@@H]4[C@@]5(C)C/C(=C/c6cccc(I)c6)C(=O)C(C)(C)[C@@H]5CC[C@]43C)[C@@H]12 | 35.3
Cn1cc(-c2nc(-c3cn(C)c4ncccc34)cs2)c2ccccc21 | 48.3
CCOC(=O)C/C(=C\c1ccccc1)C(C)=O | 98.4

May I ask what growth has been recorded for O=C1Nc2ccccc2/C1=C/c1cn(CCCn2c3ccccc3c(=O)c3ccccc32)c2ccccc12 ?
84.6

###

- Test system: SK-MEL-5 melanoma
- procedure text: NCI-60 one-dose screen, 48 h (100 = growth as untreated, 0 = no growth, -100 = all killed)
- conditions: 10 µM unless noted
About 83,000 compounds went through this panel and 20% of them were active in at least one assay; those are over-represented in the sample as a whole.
growth of 50% or higher: criterion met. Under 50%: criterion not met.

Check out these entries, answers already filled in.
NCCn1cc(-c2nc(-c3c[nH]c4ncccc34)cs2)c2cc(F)ccc21 | criterion met
CN(C)CCCC1(c2ccc(F)cc2)OCc2cc(-c3ccc(C(F)(F)F)nc3)ccc21 (stereo not drawn) | criterion met
CCN(CC)C(=O)CCCCCn1c2ccccc2c2c3c(c4c5ccccc5[nH]c4c21)C(=O)N(O)C3=O | criterion not met
CC(C)(C)n1cc(-c2ccnc(NCCCNS(=O)(=O)c3ccc(Cl)cc3)c2)c(-c2cccc(F)c2)n1 | criterion met
Cn1cc(-c2csc(-c3cn(CCN)c4ccc(F)cc34)n2)c2cccnc21 | criterion met

Form field: growth at least 50%? Entry: Cc1ccc(/C=C(\C#N)c2cc3ccccc3n2C)cc1
criterion not met

Form field: growth at least 50%? Entry: C=C1C(=O)O[C@H]2[C@H]1CC/C(Cn1cc(-c3ccc(OC)cc3)nn1)=C\CC[C@@]1(C)O[C@@H]21
criterion not met

###

- System: SF-268 CNS
- procedure text: NCI-60 one-dose screen, 48 h
- conditions: 10 µM unless noted
Compounds without any hit were thinned out: in the full panel of roughly 83,000, 20% have a hit. The source made the active and inactive calls. Rule for the calls: active = growth percent below 10; inactive = the rest.
Valid outcomes are listed here; reply with one: active, inactive

Check out these entries, answers already filled in.
Cc1cccc(C)c1NC(=O)CSC(=S)N1CCCCC1 | inactive
COC1=C(Br)C(=O)C(OC)=C(Br)C1=O | inactive
CN(CSc1ccc(Cl)cc1)c1ccc(CSc2ccc(Cl)cc2)cc1 | inactive
Cc1cc(N(CCCNc2ccnc3cc(Cl)ccc23)Cc2ccco2)nc(N2CCOCC2)n1 | inactive

Each compound tested received a call. Report the one for O=P(O)(c1ccccc1)c1ccccc1I .
inactive

Each compound tested received a call. Report the one for O=C1c2cc3c(cc2-c2c1c1ccc(F)cc1c(=O)n2CCCN1CCOCC1)OCO3 .
inactive

Each compound tested received a call. Report the one for O=C(CCCCCn1c2ccccc2c2c3c(c4c5ccccc5[nH]c4c21)C(=O)N(O)C3=O)N1CCOCC1 .
inactive

Each compound tested received a call. Report the one for CC(=O)O[C@H]1CC[C@]2(C)[C@H]3C(=O)C=C4[C@@H]5C[C@](C)(C(=O)N6CCCNCC6)CC[C@]5(C)CC[C@@]4(C)[C@]3(C)CC[C@H]2C1(C)C .
inactive

Each compound tested received a call. Report the one for C#CCN=C[C@]12CC[C@@H](C(=C)C)[C@@H]1[C@H]1CC[C@@H]3[C@@]4(C)CCC(=O)C(C)(C)[C@@H]4CC[C@@]3(C)[C@]1(C)CC2 .
inactive

Each compound tested received a call. Report the one for COc1cc2ncnc(Nc3ccc(Oc4ccnc(C)c4)c(C)c3)c2cc1NC(=O)CC1CCSS1 (centres undefined) .
active

Where do these numbers come from? They come from PubChem BioAssay (NCI).
